Assay: Oral bioavailability in Sprague-Dawley rat at 5 mg/kg measured upto 24 hrs by LC-MS/MS analysis
Format: ADME, organism-based
Settings: in vivo
Value Type: bioavailability (%)
Answers are plain numbers, in %.

Which measured bioavailability value corresponds to C[C@H]1CC[C@@H](c2nc3cccc(Cl)c3c(=O)n2-c2cccnc2)N1c1nc(N)nc(N)c1C#N ?
126

----------
Biological target: Phosphatidylinositol 4,5-bisphosphate 3-kinase catalytic subunit gamma isoform (Homo sapiens, UniProt P48736)
Sequence (P48736 whole entry, looked up, canonical isoform): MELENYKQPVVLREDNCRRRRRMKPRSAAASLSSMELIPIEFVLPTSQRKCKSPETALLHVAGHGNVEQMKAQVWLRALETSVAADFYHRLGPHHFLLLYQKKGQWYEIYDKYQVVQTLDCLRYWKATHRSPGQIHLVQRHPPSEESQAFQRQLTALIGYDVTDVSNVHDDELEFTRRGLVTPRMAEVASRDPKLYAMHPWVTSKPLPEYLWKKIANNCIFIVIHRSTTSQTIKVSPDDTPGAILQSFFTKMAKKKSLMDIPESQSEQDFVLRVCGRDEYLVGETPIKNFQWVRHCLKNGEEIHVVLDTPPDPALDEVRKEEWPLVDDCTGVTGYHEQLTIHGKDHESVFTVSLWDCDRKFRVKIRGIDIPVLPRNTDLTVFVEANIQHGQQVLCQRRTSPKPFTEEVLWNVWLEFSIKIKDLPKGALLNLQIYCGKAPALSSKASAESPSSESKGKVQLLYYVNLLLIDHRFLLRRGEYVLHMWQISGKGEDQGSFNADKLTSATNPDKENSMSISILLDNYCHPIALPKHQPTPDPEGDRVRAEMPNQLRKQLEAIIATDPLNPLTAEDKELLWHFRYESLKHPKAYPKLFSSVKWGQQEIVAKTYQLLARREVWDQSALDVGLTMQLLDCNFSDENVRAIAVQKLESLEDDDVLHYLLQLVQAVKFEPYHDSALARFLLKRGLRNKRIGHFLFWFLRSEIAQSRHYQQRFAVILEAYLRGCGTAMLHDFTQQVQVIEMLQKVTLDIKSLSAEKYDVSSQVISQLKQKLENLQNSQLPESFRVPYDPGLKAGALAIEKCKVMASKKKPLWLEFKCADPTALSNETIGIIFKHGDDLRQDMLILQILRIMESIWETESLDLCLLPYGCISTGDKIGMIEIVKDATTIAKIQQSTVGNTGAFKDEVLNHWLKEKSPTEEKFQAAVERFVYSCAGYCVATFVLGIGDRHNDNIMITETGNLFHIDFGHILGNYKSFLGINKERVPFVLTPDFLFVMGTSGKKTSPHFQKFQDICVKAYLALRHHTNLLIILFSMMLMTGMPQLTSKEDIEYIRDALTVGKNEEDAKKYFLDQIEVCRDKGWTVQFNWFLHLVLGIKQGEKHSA
Assay: Inhibition of N-terminal His6-tagged recombinant full length human PI3Kgamma expressed in baculovirus infected Sf21 insect cells at 0.1 uM by HTRF assay relative to control
Could you please report measured inhibition for the items listed next?
Numbers only, in %.

Give measured inhibition for every item shown.
1. CC(C)n1cc(-c2cccc3nc([C@@H]4CC[C@H](C)N4c4nc(N)nc(N)c4C#N)n(-c4ccccc4)c(=O)c23)cn1
2. C[C@H]1CC[C@@H](c2nc3cccc(-c4cnn(C)c4)c3c(=O)n2-c2ccccc2)N1c1nc(N)nc(N)c1C#N

10
12

// each compound listed below needs its inhibition
1. CCCn1cc(-c2cccc3nc([C@@H]4CC[C@H](C)N4c4nc(N)nc(N)c4C#N)n(-c4ccccc4)c(=O)c23)cn1
2. N#Cc1c(N)nc(N)nc1N1[C@H](c2nc3cccc(Cl)c3c(=O)n2-c2cc(F)cc(F)c2)C[C@@H]2CCCC[C@@H]21

[2, 85]
